measuredTarget: full-length beta-Catenin (Uniprot ID P35222) (Homo sapiens (Human)) (UniProt P35222)
Sequence (P35222 2-781 limits assumed): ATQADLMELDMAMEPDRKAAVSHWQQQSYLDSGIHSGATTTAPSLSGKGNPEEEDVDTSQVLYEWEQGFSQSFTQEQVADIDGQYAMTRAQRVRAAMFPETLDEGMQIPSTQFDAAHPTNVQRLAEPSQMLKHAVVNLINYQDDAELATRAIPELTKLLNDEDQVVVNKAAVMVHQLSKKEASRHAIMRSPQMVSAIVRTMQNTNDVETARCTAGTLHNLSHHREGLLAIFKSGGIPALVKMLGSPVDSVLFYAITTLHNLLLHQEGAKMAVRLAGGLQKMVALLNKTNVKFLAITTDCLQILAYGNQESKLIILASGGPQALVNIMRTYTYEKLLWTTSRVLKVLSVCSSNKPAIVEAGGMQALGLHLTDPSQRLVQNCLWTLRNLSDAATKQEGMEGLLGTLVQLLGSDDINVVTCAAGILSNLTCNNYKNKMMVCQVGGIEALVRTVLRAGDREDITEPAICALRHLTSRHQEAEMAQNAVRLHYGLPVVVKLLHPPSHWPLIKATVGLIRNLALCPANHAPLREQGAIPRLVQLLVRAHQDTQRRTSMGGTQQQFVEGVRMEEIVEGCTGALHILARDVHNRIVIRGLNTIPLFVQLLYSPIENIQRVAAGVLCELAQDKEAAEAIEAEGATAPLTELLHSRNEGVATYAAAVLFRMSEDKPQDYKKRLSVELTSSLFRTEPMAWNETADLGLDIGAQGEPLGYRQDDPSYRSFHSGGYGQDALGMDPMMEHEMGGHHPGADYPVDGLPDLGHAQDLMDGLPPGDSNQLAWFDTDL
experiment: fluorescence polarization competition; 10 nM full-length beta-catenin, 10 nM 5FAM-TCF4(10-53) as competitor probe
pIC50: −log10 of the molar value. Starred links: 1 amine or outer side, 2 acyl side, 3 side chain; linkers in the order of their positions; H or OH if unused. Positions of bridges follow the written chain, without caps; N, C: chain ends. Non-standard residues stand in square brackets, D forms with d. Primed or numbered codes have the meaning given here. PyrS2″ = (S)-3-amino-1-((pent-4-en-1-yloxy)carbonyl)pyrrolidine-3-carboxylic acid (stapling residue), C=CCCCOC(=O)N1CC[C@@](N[*:1])(C(=O)[*:2])C1; B5(4) = 2,2-bis(4-pentenyl)glycine = 2-amino-2-(pent-4-en-1-yl)hept-6-enoic acid (stitching residue), C=CCCCC(CCCC=C)(N[*:1])C(=O)[*:2]; Phe(3-COOH) = N[C@@H](Cc1cccc(C(=O)O)c1)C(=O)O; 2F3MeF = Cc1cccc(C[C@H](N[*:1])C(=O)[*:2])c1F; Phe(2-CF3) = N[C@@H](Cc1ccccc1C(F)(F)F)C(=O)O; Bta = N[C@@H](Cc1csc2ccccc12)C(=O)O; Lys(iPr) = CC(C)NCCCC[C@H](N)C(=O)O; αAllylPro = C=CC[C@@]1(C(=O)O)CCCN1; tBuAla = CC(C)(C)C[C@H](N)C(=O)O; 3Thi = N[C@@H](Cc1ccsc1)C(=O)O; Cha = N[C@@H](CC1CCCCC1)C(=O)O
// label = T if pIC50 is not less than 7, otherwise F

Worked examples, 5 binders total:
INSERT INTO assay_data (binder, assignedlabel) VALUES
  ('Ac-[αAllylPro]D[tBuAla][B5(4)]D[Phe(3-COOH)]QAFV[PyrS2″][3Thi][Bta]A-NH2 (staple 1-4, 4-11) [I-2054]', 'T'),
  ('Ac-[αAllylPro]D[tBuAla][B5(4)]D[Phe(3-COOH)]TAFL[PyrS2″][Phe(2-CF3)][Bta]A-NH2 (staple 1-4, 4-11) [I-2060]', 'T'),
  ('Ac-[αAllylPro]D[tBuAla][B5(4)]D[Phe(3-COOH)]NAFL[PyrS2″][Phe(2-CF3)][Bta]A-NH2 (staple 1-4, 4-11) [I-2058]', 'T'),
  ('Ac-[αAllylPro]D[tBuAla][B5(4)]D[Phe(3-COOH)]QAFL[PyrS2″][2F3MeF][Bta]A-NH2 (staple 1-4, 4-11) [I-2057]', 'T'),
  ('Ac-[αAllylPro]N[Cha][B5(4)]DQ[Lys(iPr)]AFN[PyrS2″]F[Bta]F-NH2 (staple 1-4, 4-11) [I-2068]', 'F');

Problem: Hi team, for Ac-[αAllylPro]N[Cha][B5(4)]DQQAFN[PyrS2″]F[Bta]A-NH2 (staple 1-4, 4-11) [I-2070] , is the recorded pIC50 at or above 7?
Solution: F

Problem: Hi team, for Ac-[αAllylPro]D[tBuAla][B5(4)]D[Phe(3-COOH)]SAFL[PyrS2″][Phe(2-CF3)][Bta]A-NH2 (staple 1-4, 4-11) [I-2059] , is the recorded pIC50 at or above 7?
Solution: T
